These records show Ki for Cannabinoid receptor 1 (Homo sapiens).
// note: answer is a bare numeric in nM

Reference set (2 entries):
Query block: So what Ki did `CC1=CC[C@@H]2[C@@H](C1)c1c(O)cc(CCCC(C)C)cc1OC2(C)C` get with Cannabinoid receptor 1 (Homo sapiens)?
Result block: 141

Query block: So what Ki did CCCCCCC1(c2cc(O)c3c(c2)OC(C)(C)[C@@H]2CC=C(C)C[C@@H]32)CC1(Cl)Cl (stereo partly drawn) get with Cannabinoid receptor 1 (Homo sapiens)?
Result block: 1.27

# next compound below
Query block: So what Ki did `CCCCCCC1(c2cc(O)c3c(c2)OC(C)(C)[C@@H]2CC=C(C)C[C@@H]32)SCCCS1` get with Cannabinoid receptor 1 (Homo sapiens)?
Result block: 1.8

====

These records show pKi for Cannabinoid receptor 2 (Homo sapiens).
Recall that pKi is obtained by taking minus log10 of the concentration measured in molar.

Reference set (8 entries):
Query block: Request the reported pKi associated with `CC1=CC[C@@H]2[C@@H](C1)c1c(O)cc(-c3cccc4ccccc34)cc1OC2(C)C`
Result block: 8.03

Query block: Request the reported pKi associated with C=C(C)C1CCC(C)=C[C@H]1c1c(O)cc(C2(CCCCCC)CC2(Br)Br)cc1O (stereo partly specified)
Result block: 7.20

Query block: Request the reported pKi associated with `CC1=CC[C@@H]2[C@@H](C1)c1c(O)cc(C(C)(C)C3CCCC3)cc1OC2(C)C`
Result block: 9.41

Query block: Request the reported pKi associated with CCCCCCC1(c2cc(O)c3c(c2)OC(C)(C)[C@@H]2CC=C(C)C[C@@H]32)SC(C)C(C)S1 (stereo partly specified)
Result block: 7.71

Query block: Request the reported pKi associated with `CCCCCCC1(c2cc(O)c3c(c2)OC(C)(C)[C@@H]2CC=C(C)C[C@@H]32)OCCO1`
Result block: 9.66

Query block: Request the reported pKi associated with `CCc1ccc(-c2cc(O)c3c(c2)OC(C)(C)[C@@H]2CC=C(C)C[C@@H]32)cc1`
Result block: 7.29

Query block: Request the reported pKi associated with `CCCCCCC1(c2cc(O)c3c(c2)OC(C)(C)[C@@H]2CC=C(C)C[C@@H]32)Sc2ccccc2S1`
Result block: 6.59

Query block: Request the reported pKi associated with `CC1=CC[C@@H]2[C@@H](C1)c1c(O)cc(C3SCCS3)cc1OC2(C)C`
Result block: 6.99

Next:
Query block: Request the reported pKi associated with `CCCCCCC(=O)c1cc(O)c2c(c1)OC(C)(C)[C@@H]1CC=C(C)C[C@@H]21`
Result block: 7.08

Query block: Request the reported pKi associated with `CC1=CC[C@@H]2[C@@H](C1)c1c(O)cc(C(C)(C)CCCCOc3ccc(C#N)cc3)cc1OC2(C)C`
Result block: 8.96

Query block: Request the reported pKi associated with `CC1=CC[C@@H]2[C@@H](C1)c1c(O)cc(-c3ccc(C)cc3)cc1OC2(C)C`
Result block: 7.14

====

These records show Ki for UniProt P21554.
State the value with its unit after it.

Reference set (3 entries):
Query block: Request the reported Ki associated with `CCCC(C)(C)c1cc(O)c2c(c1)OC(C)(C)[C@@H]1CC=C(C)C[C@@H]21`
Result block: 0.0109 µM

Query block: Request the reported Ki associated with `CCc1ccc(-c2cc(O)c3c(c2)OC(C)(C)[C@@H]2CC=C(C)C[C@@H]32)cc1`
Result block: 0.119 µM

Query block: Request the reported Ki associated with `CCCCCCCc1cc(O)c2c(c1)OC(C)(C)[C@@H]1CC=C(C)C[C@@H]21`
Result block: 0.022 µM

Next:
Query block: Request the reported Ki associated with C=C(C)C1CCC(C)=C[C@H]1c1c(O)cc(C2(CCCCCC)CC2(Cl)Cl)cc1O (stereo partly specified)
Result block: 0.666 µM

Query block: Request the reported Ki associated with `CCCCCCC1(c2cc(O)c3c(c2)OC(C)(C)[C@@H]2CC=C(C)C[C@@H]32)Sc2ccccc2S1`
Result block: 0.0569 µM

Query block: Request the reported Ki associated with `CC1=CC[C@@H]2[C@@H](C1)c1c(O)cc(C3SCCS3)cc1OC2(C)C`
Result block: 0.168 µM
